measured-on: human TLR8 (Homo sapiens, UniProt Q9NR97)
Sequence (Q9NR97 27-1041): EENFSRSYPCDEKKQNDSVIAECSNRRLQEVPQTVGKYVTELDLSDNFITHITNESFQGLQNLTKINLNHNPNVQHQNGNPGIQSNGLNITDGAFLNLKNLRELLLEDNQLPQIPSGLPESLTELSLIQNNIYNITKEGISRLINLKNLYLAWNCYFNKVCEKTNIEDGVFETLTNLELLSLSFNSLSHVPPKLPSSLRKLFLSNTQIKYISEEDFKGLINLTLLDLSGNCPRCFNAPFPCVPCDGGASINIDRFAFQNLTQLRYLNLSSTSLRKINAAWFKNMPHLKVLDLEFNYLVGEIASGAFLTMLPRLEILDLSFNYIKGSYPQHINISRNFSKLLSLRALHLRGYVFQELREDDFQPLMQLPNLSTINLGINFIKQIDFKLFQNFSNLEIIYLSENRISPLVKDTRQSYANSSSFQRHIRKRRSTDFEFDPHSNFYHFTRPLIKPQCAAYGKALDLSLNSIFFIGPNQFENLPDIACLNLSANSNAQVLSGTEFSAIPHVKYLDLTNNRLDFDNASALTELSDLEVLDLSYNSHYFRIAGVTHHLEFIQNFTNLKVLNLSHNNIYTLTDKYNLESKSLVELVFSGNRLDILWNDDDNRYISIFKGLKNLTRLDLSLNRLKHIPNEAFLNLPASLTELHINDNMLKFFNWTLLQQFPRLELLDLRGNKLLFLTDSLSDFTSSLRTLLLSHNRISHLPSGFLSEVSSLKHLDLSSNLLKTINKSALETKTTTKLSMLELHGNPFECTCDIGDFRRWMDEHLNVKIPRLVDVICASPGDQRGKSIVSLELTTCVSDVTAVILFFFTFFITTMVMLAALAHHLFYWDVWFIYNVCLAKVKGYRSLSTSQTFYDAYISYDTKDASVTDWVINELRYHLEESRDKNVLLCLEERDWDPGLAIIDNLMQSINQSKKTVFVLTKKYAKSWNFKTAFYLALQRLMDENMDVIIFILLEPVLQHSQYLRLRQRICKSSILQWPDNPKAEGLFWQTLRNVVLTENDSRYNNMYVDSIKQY
procedure-details: TLR8 inhibition reporter assay (HEK-Blue SEAP reporter)
condition-notes: HEK-Blue cells overexpressing human TLR8; R848 15.9 μM; 22 hour incubation
pIC50: −log10 of the molar value.
Is pIC50 at least 8? Then True. If not, False.

Q) Check the entry CCc1c(-c2ccc(OC)c(OC)c2)[nH]c2ccc(N3CCN(C4CC(C)(C)NC(C)(C)C4)CC3)cc12 : does pIC50 equal or exceed 8?
A) False

Q) Check the entry COc1ccc(-c2[nH]c3ccc(NC4CCC(NC5CCN(C)CC5)CC4)cc3c2C(C)C)cc1OC (single isomer, unassigned) : does pIC50 equal or exceed 8?
A) False

Q) Could you tell me if the measured pIC50 of COc1ccc(-c2[nH]c3ccc(NC(=O)[C@@H](N)CCCCN)cc3c2C(C)C)cc1OC reaches 8 or more?
A) False

Q) pIC50 >= 8 for CC(C)c1c(-c2ccnc3[nH]ccc23)[nH]c2ccc(N3CCN(C4CCN(C(C)C)CC4)CC3)cc12 ?
A) True

Q) Reported pIC50 reaches at least 8 for COc1ccc(-c2[nH]c3ccc(N4CCC(OCCN(C)C)CC4)cc3c2C(C)C)cc1OC ?
A) False

Q) Identify whether the reported pIC50 of the following molecule is 8 or greater: Cc1cc(-c2[nH]c3ccc(N4CCC(OCCN(C)C)C4=O)cc3c2C(C)C)ccn1 (centres unmarked)
A) False

Q) In plain terms: is recorded pIC50 at least 8 for COc1ccc(-c2[nH]c3ccc(N4CCC(C)(N5CCOCC5)CC4)cc3c2C(C)C)cc1OC ?
A) True
